The compounds listed here are annotated with their IC50.
Target: BRD4-BD1 (Homo sapiens (Human))
Experiment: BRD4-H4 Tetraacetylated Peptide Inhibition AlphaScreen
Conditions: GST-BRD4-BD1 (aa 44-168), biotinylated Acetyl-Histone H4 peptide
Protocol: Compounds are diluted in serial dilution 1:5 in assay buffer from 10 mM stock in DMSO (100 μM start concentration) in white OptiPlate-384 (PerkinElmer). […] Afterwards, the signal is measured in a PerkinElmer Envision HTS Multilabel Reader using the AlphaScreen protocol from PerkinElmer. […]
Write the number in nM without appending the unit.

- Cc1cc(-c2nc3ccc(N)cc3n2Cc2ccccc2)cn(C)c1=O [Example I-9]: 58
- Cc1cc(-c2nc3cc(C4CCOCC4)cnc3n2Cc2ccccc2)cn(C)c1=O [IV-7]: 16
- Cc1cc(-c2nc3cnc(N4CCOCC4)cc3n2Cc2cccnc2)cn(C)c1=O [II-20]: 33

Record lookup: for BRD4-BD1 (Homo sapiens (Human)), what IC50 belongs to Cc1cc(-c2nc3cnc(C4CCOCC4)cc3n2[C@@H](C)c2ccccc2)cn(C)c1=O [II-26] ? 16

Request - read-out IC50 | tested on BRD4-BD1 (Homo sapiens (Human)) | compound Cc1nc(-c2nc3ccccc3n2Cc2ccccc2)cn(C)c1=O [Example I-21] 201

Enter reported IC50 observed with BRD4-BD1 (Homo sapiens (Human)) for Cn1cc(-c2nc3ccc(N4CCOCC4)cc3n2Cc2ccccc2)ncc1=O [Example I-19] 298

For the record Cc1cc(-c2nc3ccc(C4CCN(C)C(=O)C4)cc3n2[C@@H](C)c2ccccc2)nn(C)c1=O (stereo partly drawn) [Example I-38] , what value of IC50 is listed for BRD4-BD1 (Homo sapiens (Human))? 32

Recorded IC50 for Cc1nc(-c2nc3ccc(N4CCN(C)CC4)cc3n2Cc2ccccc2)cn(C)c1=O [Example I-14] with BRD4-BD1 (Homo sapiens (Human)), please? 36

Look up IC50 with BRD4-BD1 (Homo sapiens (Human)) for this compound: Cc1cc(-c2nc3cnc(N4CCOC[C@@H]4C)cc3n2Cc2ccccc2)cn(C)c1=O [II-15] 42

Form: Entry = CN1CCN(c2ccc3nc(-c4ccc(=O)n(C)n4)n(Cc4ccccc4)c3c2)CC1 [Example I-16] | System = BRD4-BD1 (Homo sapiens (Human)) | IC50 = ____ 192

Query the reported IC50 for BRD4-BD1 (Homo sapiens (Human)); item: Cc1cc(-c2nc3ccc(OC(C)C)nc3n2[C@@H](C)c2ccccn2)nn(C)c1=O [III-4] 118

Param readout= IC50; system= BRD4-BD1 (Homo sapiens (Human)); entry= Cc1cc(-c2nc3ccc(N4CCOCC4)cc3n2Cc2ccccc2)cn(C)c1=O [Example I-6] ; returns value. 19

Short answer please: IC50, BRD4-BD1 (Homo sapiens (Human)), entry Cc1cc(-c2nc3cnc(N4CCN(C)CC4)cc3n2C(C)c2ccccn2)cn(C)c1=O (stereo not drawn) [II-22] 34

Give recorded IC50 with BRD4-BD1 (Homo sapiens (Human)) for the following compound: Cc1nc(-c2nc3cnc(N4CCN(C)CC4)cc3n2Cc2ccccc2)cn(C)c1=O [II-10] 45

Please state recorded IC50 (tested on BRD4-BD1 (Homo sapiens (Human))) of Cc1cc(-c2nc3cccc(C)c3n2Cc2ccccn2)cn(C)c1=O [IV-10] 109

Lab note: need IC50 with BRD4-BD1 (Homo sapiens (Human)) for entry Cc1cc(-c2nc3cnc(N4CCOCC4)cc3n2Cc2ccncc2)cn(C)c1=O [II-14] , please look it up. 63

Give IC50 (BRD4-BD1 (Homo sapiens (Human))) of the following compound: Cc1cc(-c2nc3ncccc3n2Cc2ccccc2)cn(C)c1=O [IV-1] 313

Under BRD4-BD1 (Homo sapiens (Human)): IC50 value of Cc1cc(-c2nc3cnc(N4CCOCC4)nc3n2[C@@H](C)c2ccccc2)cn(C)c1=O [IV-15] ? 17
